Listing: CC50 at 6 days of selected compounds
# Procedure Summary: Cytotoxicity determination in HepG2.2.15 cells (CCK-8)
# Format: cell-based
# Assay Context: human, 6 days of compound treatment, CCK-8, highest concentration 100 μM
# Method: HBV replication inhibition by the compounds of this invention as well as cytotoxicity determination was determined in cells infected or transfected with HBV, or cells with stably integrated HBV, such as HepG2.2.15 cells (Sells et al. 1987). The method used herein is as follows. […] EC50 and CC50 values are calculated by the GraphPad Prism software and are averages where multiple measurements were made. […]
The response must be a number in µM with no trailing unit.

COC(=O)C1=C(C2CCCC3(C2)OCCO3)NC(c2nccs2)=NC1c1ccc(F)cc1Cl (stereo not shown)    29.7

QUERY: Quick one: CC50 at 6 days for COC(=O)C1=C(C2CCN(S(=O)(=O)c3ccccn3)CC2)NC(c2nccs2)=NC1c1cccc(F)c1Cl (single isomer, unassigned) [Compound 116B] ?
RESULT: 71.3

QUERY: Now the compound COC(=O)C1=C(C2CCOCC2)NC(c2nccs2)=NC1c1ccc(F)cc1Cl (stereo not shown) [Compound 51]
RESULT: 9.9

---

# Procedure Summary: Cytotoxicity determination in HepG2.2.15 cells (CCK-8)
# Assay type: cell-based
# Assay Context: human, 6 days of compound treatment, CCK-8, highest concentration 100 μM
Rule: measured CC50 at 6 days below 20 µM gets TRUE; anything equal to or greater than 20 µM gets FALSE.

Here's what some known entries look like.
CCOC(=O)C1=C(C2CCCCC2)NC(c2nccs2)=NC1c1ccc(F)cc1Cl (single isomer, unassigned) [Compound 47A]    FALSE
COC(=O)C1=C(C2CCN(S(C)(=O)=O)CC2)NC(c2nccs2)=NC1c1ccc(Cl)cc1F (stereo not drawn) [Compound 97B]    FALSE
CCOC(=O)C1=C(C2CCN(S(=O)(=O)[C@H]3C[C@@H](C(=O)O)C3)CC2)NC(c2nccs2)=NC1c1ccc(F)c(F)c1Cl (relative stereo) [Compound 370D]    FALSE
CCOC(=O)C1=C([C@H]2CC[C@H](C(=O)OC)CC2)NC(c2nccs2)=NC1c1cccc(F)c1Cl (relative stereo) [Compound 22Y]    FALSE

QUERY: Is 20 µM strictly greater than the compound's reported CC50 at 6 days? compound: COC(=O)C1=C(C2CCN(S(=O)(=O)c3cnn(C[C@@H](C)O)c3)CC2)NC(c2nccs2)=NC1c1ccc(F)cc1Cl (stereo partly drawn) [Compound 360C]
RESULT: TRUE

QUERY: Thanks! And COC(=O)C1=C(C2CCN(S(=O)(=O)[C@H]3C[C@H](C(C)(C)O)C3)CC2)NC(c2nccs2)=NC1c1ccc(F)cc1Cl (single isomer, unassigned) [Compound 244B] ?
RESULT: TRUE

---

# Procedure Summary: Cytotoxicity determination in HepG2.2.15 cells (CCK-8)
# Type: cell-based
# Assay Context: human, 6 days of compound treatment, CCK-8, highest concentration 100 μM
Property Measured: CC50 at 6 days
Express your answer as a number followed by its unit.

COC(=O)C1=C(C2CCN(S(=O)(=O)c3cccc(C(=O)O)c3)CC2)NC(c2nccs2)=NC1c1cccc(F)c1Cl (stereo not drawn)    59.1 µM
COC(=O)C1=C(C2CCN(S(=O)(=O)[C@H]3C[C@H](C(=O)O)C3)CC2)NC(c2nccs2)=NC1c1ccc(F)cc1Br (stereo partly drawn) [Compound 241B]    60 µM

QUERY: Look at this molecule and give its reported CC50 at 6 days. COCCS(=O)(=O)N[C@H]1CC[C@H](C2=C(C(=O)OC)C(c3ccc(F)cc3Cl)N=C(c3nccs3)N2)CC1 (single isomer, unassigned) [Compound 182A]
RESULT: 33.6 µM

QUERY: # iterate: CCOC(=O)C1=C(C2CCN(S(C)(=O)=O)CC2)NC(c2nccs2)=NC1c1cccc(F)c1Cl (stereo not drawn) [Compound 96B]
RESULT: 21.2 µM

QUERY: How about this molecule: COC(=O)C1=C([C@H]2CC[C@H](C(=O)OC)CC2)NC(c2ncc(F)cc2F)=NC1c1ccc(F)cc1Cl (single isomer, unassigned) [Compound 174A]
RESULT: 19.4 µM

QUERY: Now try COC(=O)C1=C([C@H]2CC[C@H](NS(N)(=O)=O)CC2)NC(c2nccs2)=NC1c1ccc(F)c(F)c1Cl (relative stereo) .
RESULT: 13.4 µM

---

# Test system: HepG2.2.15 cells
# Procedure Summary: Cytotoxicity determination in HepG2.2.15 cells (CCK-8)
# Type: cell-based
# Assay Context: 6 days of compound treatment, CCK-8, highest concentration 100 μM
// returns false unless CC50 is strictly below 20 µM, in which case true

QUERY: Dear reviewer, please state whether COC(=O)C1=C(C2CCN(S(=O)(=O)C3CC(O)C3)CC2)NC(c2nccs2)=NC1c1ccc(F)cc1Cl (single isomer, unassigned) [Compound 335B] has CC50 strictly beneath 20 µM.
RESULT: true

QUERY: And COC(=O)C1=C(C2CCN(S(=O)(=O)C3CCC(C)(C(=O)O)CC3)CC2)NC(c2nccs2)=NC1c1ccc(F)c(F)c1Cl (single isomer, unassigned) [Compound 210B] ?
RESULT: true

---

# Procedure Summary: Cytotoxicity determination in HepG2.2.15 cells (CCK-8)
# Format: cell-based
# Assay Context: human, 6 days of compound treatment, CCK-8, highest concentration 100 μM
Property Measured: CC50 at 6 days

The examples below pair each entry with its known result.
COC(=O)C1=C([C@H]2C[C@H](NC(C)=O)C2)NC(c2nccs2)=NC1c1ccc(F)cc1Cl (single isomer, unassigned) [Compound 89R]    17.2 µM
COC(=O)C1=C([C@H]2CC[C@@H](NS(C)(=O)=O)CC2)NC(c2nccs2)=NC1c1ccc(F)cc1Cl (single isomer, unassigned) [Compound 128D]    22.8 µM
COC(=O)C1=C([C@H]2CC[C@@H](N(CCO)S(C)(=O)=O)CC2)NC(c2nccs2)=NC1c1ccc(F)cc1Cl (single isomer, unassigned) [Compound 180B]    22.1 µM
CCOC(=O)C1=C(C2CCN(S(=O)(=O)[C@H]3C[C@H](C(=O)O)C3)CC2)NC(c2nccs2)=NC1c1cccc(F)c1Cl (stereo partly shown) [Compound 319B]    31.3 µM
COC(=O)C1=C(C2CCC(N(C)C(C)=O)C2)NC(c2nccs2)=NC1c1cccc(F)c1Cl (stereo not shown)    14.9 µM
CCOC(=O)C1=C(C2CCN(S(=O)(=O)[C@H]3C[C@H](C(=O)O)C3)CC2)NC(c2nccs2)=NC1c1ccccc1Cl (stereo partly shown)    42.1 µM
COC(=O)C1=C(C2CCN(S(=O)(=O)c3cnn(Cc4ncco4)c3)CC2)NC(c2nccs2)=NC1c1ccc(F)c(F)c1Cl (stereo not shown)    35.2 µM
COC(=O)C1=C(C2CCN(S(=O)(=O)CCOCCO)CC2)NC(c2nccs2)=NC1c1ccc(F)cc1Cl (stereo not shown)    47 µM
COC(=O)C1=C(C2CCN(S(=O)(=O)C[C@H]3CC[C@H](C(=O)O)CC3)CC2)NC(c2nccs2)=NC1c1ccc(F)c(F)c1Cl (stereo partly shown)    13.3 µM
COC(=O)C1=C([C@H]2CC[C@H](S(=O)(=O)N3CCCC3)CC2)NC(c2nccs2)=NC1c1ccc(F)c(F)c1Cl (single isomer, unassigned) [Compound 169A]    > 100 µM

QUERY: What measured CC50 at 6 days goes with COCCOCCS(=O)(=O)N1CCC(C2=C(C(=O)OC)C(c3ccc(F)cc3Cl)N=C(c3nccs3)N2)CC1 (stereo not shown) ?
RESULT: 29.4 µM

QUERY: What about this compound? COC(=O)C1=C(C2CCN(S(C)(=O)=O)CC2)NC(c2nccs2)=NC1c1ccc(F)c(F)c1Cl (single isomer, unassigned) [Compound 59B]
RESULT: 27.9 µM

QUERY: Then this compound: COC(=O)C1=C(C2CCN(S(C)(=N)=O)CC2)NC(c2nccs2)=NC1c1ccc(F)c(F)c1Cl (stereo not shown) [Compound 205A]
RESULT: 42.3 µM

---

# Procedure Summary: Cytotoxicity determination in HepG2.2.15 cells (CCK-8)
# Format: cell-based
# Assay Context: human, 6 days of compound treatment, CCK-8, highest concentration 100 μM
# Procedure: HBV replication inhibition by the compounds of this invention as well as cytotoxicity determination was determined in cells infected or transfected with HBV, or cells with stably integrated HBV, such as HepG2.2.15 cells (Sells et al. 1987). The method used herein is as follows. […] EC50 and CC50 values are calculated by the GraphPad Prism software and are averages where multiple measurements were made. […]
Lab note - cut at 20 µM for CC50 at 6 days: YES if strictly below, NO if not.

COC(=O)C1=C([C@H]2CC[C@H](C(=O)O)CC2)NC(c2nccs2)=NC1c1ccc(F)c(F)c1Cl (relative stereo) [Compound 289A]    NO
CCOC(=O)C1=C([C@@H]2CCN(S(C)(=O)=O)[C@@H](CF)C2)NC(c2nccs2)=NC1c1ccc(F)cc1Cl (relative stereo) [Compound 404N]    YES
COC(=O)C1=C(C2CC(C(=O)O)C2)NC(c2nccs2)=NC1c1ccc(F)cc1Cl (stereo not drawn) [Compound 86]    NO
COC(=O)C1=C(C23CC(NC(C)=O)(C2)C3)NC(c2nccs2)=NC1c1ccc(F)cc1Cl (stereo not drawn) [Compound 391B]    NO

QUERY: State whether 20 µM exceeds CC50 at 6 days recorded for COC(=O)C1=C([C@H]2C[C@H](NS(C)(=O)=O)C2)NC(c2nccs2)=NC1c1ccc(F)cc1Cl (single isomer, unassigned) [Compound 206B] .
RESULT: NO

Where do the numbers come from? From patent US11639350B2.
